Origin of measurements: paper PMC10250618

# test_target: t-P2Y1 (Meleagris gallopavo, UniProt P49652)
# Construct: host or cells: human 1321N1 astrocytoma cells, stably transfected
# Sequence (P49652 whole entry): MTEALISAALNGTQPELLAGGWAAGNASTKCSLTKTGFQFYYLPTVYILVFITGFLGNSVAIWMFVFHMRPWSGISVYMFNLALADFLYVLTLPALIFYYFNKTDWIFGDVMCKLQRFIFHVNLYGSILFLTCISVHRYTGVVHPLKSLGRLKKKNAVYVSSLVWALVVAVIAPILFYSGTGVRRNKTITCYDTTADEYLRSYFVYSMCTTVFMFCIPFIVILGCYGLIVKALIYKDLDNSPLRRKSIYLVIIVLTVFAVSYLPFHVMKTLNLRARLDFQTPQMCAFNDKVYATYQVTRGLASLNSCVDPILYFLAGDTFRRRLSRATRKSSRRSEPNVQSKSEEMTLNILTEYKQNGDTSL
# assay_method_text: Calcium mobilization assay, t-P2Y1 transfected 1321N1 astrocytoma cells
# Format: cell-based
assay_metric: IC50 (µM)
Supply the numeric figure in µM, leaving out any unit text.

Q: For the compound Cc1ccc([N+](=O)[O-])cc1S(=O)(=O)NC(=O)n1c(N)nc2cc([N+](=O)[O-])ccc21 , give its measured IC50 value.
A: 11.1

###

// reported melting point per item

The following molecules have reported results that may help.
COc1ccc(S(=O)(=O)NC(=O)n2c(OC)nc3ccccc32)cc1 [1u]
177 to 179 °C
O=C(NS(=O)(=O)c1ccc(Cl)cc1)n1c(-c2ccccc2)nc2ccccc21 [1n]
158 to 160 °C

Q: Please report the measured melting point for COc1nc2ccccc2n1C(=O)NS(=O)(=O)c1ccc(Cl)cc1 [1v]
A: 152 to 154 °C

Q: For the molecule Nc1nc2cc(Cl)ccc2n1C(=O)NS(=O)(=O)c1ccc([N+](=O)[O-])cc1 [1k] , report melting point.
A: 183 to 184 °C

Q: Given Nc1nc2ccccc2n1C(=O)NS(=O)(=O)c1ccc(Cl)cc1 [1f] , respond with its melting point.
A: 110 to 112 °C

Q: Query melting point for Cc1ccc([N+](=O)[O-])cc1S(=O)(=O)NC(=O)n1c(N)nc2ccccc21 [1g]
A: 183 to 184 °C

Q: Supply melting point value. Item: Cc1ccc(S(=O)(=O)NC(=O)n2c(N)nc3ccccc32)cc1 [1w]
A: 165 to 167 °C

Q: Respond only with melting point recorded for Nc1nc2cc(Cl)ccc2n1C(=O)NS(=O)(=O)c1cc(Cl)cc(Cl)c1O [1h]
A: 124 to 126 °C

Q: State, in one line, measured melting point of COc1ccc(S(=O)(=O)NC(=O)n2c(Cl)nc3ccccc32)cc1 [1p]
A: 160 to 162 °C

Q: For the molecule Cc1ccc(S(=O)(=O)NC(=O)n2c(N)nc3cc([N+](=O)[O-])ccc32)cc1 [1b] , give its measured melting point value.
A: 113 to 115 °C

Q: Please report melting point for the following molecule: Cc1ccc([N+](=O)[O-])cc1S(=O)(=O)NC(=O)n1c(N)nc2cc([N+](=O)[O-])ccc21 [1c]
A: 117 to 119 °C

Q: Answer with reported melting point of O=C(NS(=O)(=O)c1ccc([N+](=O)[O-])cc1)n1c(-c2ccccc2)nc2ccccc21 [1o]
A: 162 to 164 °C

Q: Tell me measured melting point for Cc1ccc(S(=O)(=O)NC(=O)n2c(N)nc3cc(Cl)ccc32)cc1 [1x] please.
A: 188 to 190 °C

Q: Output measured melting point for this item: Nc1nc2cc([N+](=O)[O-])ccc2n1C(=O)NS(=O)(=O)c1cc(Cl)cc(Cl)c1O [1a]
A: 107 to 110 °C

Q: Give me measured melting point, please, for this molecule: O=C(NS(=O)(=O)c1ccc(-c2ccccc2)cc1)n1c(Cl)nc2ccccc21 [1r]
A: 172 to 174 °C

###

# test_target: t-P2Y1 (Meleagris gallopavo)
# Construct: host or cells: human 1321N1 astrocytoma cells, stably transfected
# assay_method_text: Calcium mobilization assay, t-P2Y1 transfected 1321N1 astrocytoma cells
# Type: cell-based
# condition: Ca2+ mobilization inhibition, transfected 1321N1 cells, 100 μM ADP; read-out: IC50 ± SEM t-P2Y1
pIC50: −log10 of the molar value.
Binary classification by pIC50, with 5 as an inclusive lower bound for 1 (yes); all other cases are 0 (no).

Some entries whose results are on file:
Nc1nc2ccccc2n1C(=O)NS(=O)(=O)c1ccc(Cl)cc1
1 (yes)
Nc1nc2cc(Cl)ccc2n1C(=O)NS(=O)(=O)c1ccc(Cl)cc1
1 (yes)
Nc1nc2cc([N+](=O)[O-])ccc2n1C(=O)NS(=O)(=O)c1cc(Cl)cc(Cl)c1O
1 (yes)

Q: Say whether O=C(NS(=O)(=O)c1ccccc1)n1c(Cl)nc2ccccc21 shows pIC50 of 5 or more.
A: 0 (no)

Q: Tell me whether pIC50 is at least 5 here: Nc1nc2ccccc2n1C(=O)NS(=O)(=O)c1cc(Cl)cc(Cl)c1O
A: 1 (yes)
